System: Pseudomonas aeruginosa
assay.procedure: Antibacterial activity against Pseudomonas aeruginosa ATCC 27853 after 18 hrs by broth microdilution method
Assay type: functional
experimental.context: ATCC 27853, 18 h
Recorded measurements of MIC, one per entry

Examples from the recorded data:
{"compound": "O=C(O)c1cn(C2CC2)c2cc(N3CCNCC3)c(F)cc2c1=O", "experimental.system": "Pseudomonas aeruginosa", "reported.measurement": "0.125 µM"}
{"compound": "O=C(O)CCC(=O)N(O)CCCCCNC(=O)CCC(=O)N(CCCCNC(=O)c1cccc(O)c1O)CCCNC(=O)c1cccc(O)c1O", "experimental.system": "Pseudomonas aeruginosa", "reported.measurement": "> 128 µM"}
{"compound": "N[C@@H](C(=O)N[C@@H]1C(=O)N2C(C(=O)O)=C(Cl)CC[C@H]12)c1ccccc1 [LORACARBEF ANHYDROUS]", "experimental.system": "Pseudomonas aeruginosa", "reported.measurement": "> 128 µM"}

In: # lookup: MIC of "O=C(CCC(=O)N(CCCCNC(=O)c1cccc(O)c1O)CCCNC(=O)c1cccc(O)c1O)NCCCCCN(O)C(=O)CCC(=O)N1CCN(c2cc3c(cc2F)c(=O)c(C(=O)O)cn3C2CC2)CC1"
Out: > 128 µM

In: Moving on to the next compound: "O=C(CCC(=O)N(CCCCNC(=O)c1cccc(O)c1O)CCCNC(=O)c1cccc(O)c1O)NCCCCCN(O)C(=O)CCC(=O)N[C@H](C(=O)N[C@@H]1C(=O)N2C(C(=O)O)=C(Cl)CC[C@H]12)c1ccccc1"
Out: > 128 µM
